Target: T1, CRBN, Q96SW2;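 note: pooled lentiviral library of zinc finger degron-EGFP fusions in mCherry-positive Jurkat cells, FACS-sorted after compound exposure, with degron abundance counted by next-generation sequencing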
T1 chain: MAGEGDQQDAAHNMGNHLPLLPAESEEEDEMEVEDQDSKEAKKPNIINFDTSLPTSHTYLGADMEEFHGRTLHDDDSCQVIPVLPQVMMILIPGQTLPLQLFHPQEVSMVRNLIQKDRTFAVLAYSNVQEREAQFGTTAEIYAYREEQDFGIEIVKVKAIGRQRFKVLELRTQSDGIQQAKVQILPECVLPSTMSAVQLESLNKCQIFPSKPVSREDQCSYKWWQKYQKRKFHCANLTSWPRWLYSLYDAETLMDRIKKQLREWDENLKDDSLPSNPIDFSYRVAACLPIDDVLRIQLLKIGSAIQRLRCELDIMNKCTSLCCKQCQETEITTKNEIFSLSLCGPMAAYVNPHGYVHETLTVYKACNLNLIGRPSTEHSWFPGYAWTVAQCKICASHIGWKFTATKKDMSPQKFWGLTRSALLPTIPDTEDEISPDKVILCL
Assay: log2 fold change of degron read counts, EGFP-low vs EGFP+ sorted cells (limma voom), compound-induced degradation; higher = more compound-induced degradation of the degron-EGFP fusion; degrons are variants of IKZF1/3 zinc finger 2; compound dose not given here
Conditions: Jurkat; 18 h; compound: thalidomide
The full ranking holds about 8,300 sequences; the median of “log2 fold change of degron read counts, EGFP-low vs EGFP+ sorted cells (limma voom), compound-induced degradation” is about -1.1, and the highest 2% start at about 3.2. The entries come from a sample that favours the highest values as a whole.
For each entry below, report its log2 fold change of degron read counts value.
Give bare numbers.

{"Monomer sequence": "LGCNQCGFSCTQKGNLLRHIKL [46L_47G_49N_50Q_52G_53F_54S_55C_67L_, Q9UKT9]", "log2 fold change of degron read counts": -1.71}

Each of the following entries comes with a recorded value; kindly state log2 fold change of degron read counts for each.
1. FDCPICGREFTQKGNLLRHIKL [46F_47D_49P_50I_52G_53R_54E_55F_67L_, Q9UKT9]
2. FHCNICGAIFTQKGNLLRHIKL [46F_47H_49N_50I_52G_53A_54I_55F_67L_, Q9UKT9]
3. LLCPICGFYCTQKGNLLRHIKL [46L_47L_49P_50I_52G_53F_54Y_55C_67L_, Q9UKT9]
4. FMCEICGHQFTQKGNLLRHIKL [46F_47M_49E_50I_52G_53H_54Q_55F_67L_, Q9UKT9]
5. FYCNICGAIFTQKGNLLRHIKL [46F_47Y_49N_50I_52G_53A_54I_55F_67L_, Q9UKT9]
6. FGCPICGHEFTQKGNLLRHIKL [46F_47G_49P_50I_52G_53H_54E_55F_67L_, Q9UKT9]

1: 0.273; 2: -0.75; 3: 1.96; 4: -1.87; 5: -0.748; 6: -2.26

This collection of values is drawn from the supplement of paper PMC12645437.
